Values compiled from ChEMBL document CHEMBL1255193.

System: Bcrp1
Experiment: Apparent permeability of the compound from apical to basolateral direction in MDCK2 cells expressing Bcrp1
Format: ADME, cell-based, Canis lupus familiaris, MDCK-II
Details: dog
Experimental Endpoint: Papp A→B (nm/s)

>>> readout_value("Cn1ncc2c(-c3ccc(S(C)(=O)=O)cc3)nc(-c3cccc4[nH]ncc34)nc21")
38
>>> readout_value("Cn1ncc2c(Oc3ccc(S(C)(=O)=O)cc3)nc(-c3cccc4[nH]ncc34)nc21")
0.5
>>> readout_value("Cn1ncc2c(Nc3ccc(S(C)(=O)=O)cc3)nc(-c3cccc4[nH]ncc34)nc21")
0.3

---

System: Bcrp1
Assay: Apparent permeability of the compound from apical to basolateral direction in MDCK2 cells expressing Bcrp1 in presence of fumitremorgin C
Assay type: ADME, cell-based, Canis lupus familiaris, MDCK-II
Conditions: dog, with fumitremorgin C
Experimental Endpoint: Papp A→B

>>> readout_value("Cn1ncc2c(Nc3ccc(S(C)(=O)=O)cc3)nc(-c3cccc4[nH]ncc34)nc21")
"0.63 ×10⁻⁶ cm/s"

---

Assay: Oral bioavailability in human PC3 cells xenografted athymic nude mouse at 5 mg/kg
Assay type: ADME, organism-based, PC-3
Conditions: in vivo
Experimental Endpoint: bioavailability (%)

>>> readout_value("Cn1ncc2c(Oc3ccc(S(C)(=O)=O)cc3)cc(-c3cccc4[nH]ncc34)nc21")
110

---

Assay: Plasma protein binding in mouse
Assay type: ADME, cell-free
Details: read-out: PPB (converted)
Experimental Endpoint: fraction unbound

>>> readout_value("Cn1ncc2c(Oc3ccc(S(C)(=O)=O)cc3)cc(-c3cccc4[nH]ncc34)nc21")
0.012

---

Biological target: Phosphatidylinositol 4,5-bisphosphate 3-kinase catalytic subunit alpha isoform (Homo sapiens)
Sequence (P42336 whole entry, canonical isoform): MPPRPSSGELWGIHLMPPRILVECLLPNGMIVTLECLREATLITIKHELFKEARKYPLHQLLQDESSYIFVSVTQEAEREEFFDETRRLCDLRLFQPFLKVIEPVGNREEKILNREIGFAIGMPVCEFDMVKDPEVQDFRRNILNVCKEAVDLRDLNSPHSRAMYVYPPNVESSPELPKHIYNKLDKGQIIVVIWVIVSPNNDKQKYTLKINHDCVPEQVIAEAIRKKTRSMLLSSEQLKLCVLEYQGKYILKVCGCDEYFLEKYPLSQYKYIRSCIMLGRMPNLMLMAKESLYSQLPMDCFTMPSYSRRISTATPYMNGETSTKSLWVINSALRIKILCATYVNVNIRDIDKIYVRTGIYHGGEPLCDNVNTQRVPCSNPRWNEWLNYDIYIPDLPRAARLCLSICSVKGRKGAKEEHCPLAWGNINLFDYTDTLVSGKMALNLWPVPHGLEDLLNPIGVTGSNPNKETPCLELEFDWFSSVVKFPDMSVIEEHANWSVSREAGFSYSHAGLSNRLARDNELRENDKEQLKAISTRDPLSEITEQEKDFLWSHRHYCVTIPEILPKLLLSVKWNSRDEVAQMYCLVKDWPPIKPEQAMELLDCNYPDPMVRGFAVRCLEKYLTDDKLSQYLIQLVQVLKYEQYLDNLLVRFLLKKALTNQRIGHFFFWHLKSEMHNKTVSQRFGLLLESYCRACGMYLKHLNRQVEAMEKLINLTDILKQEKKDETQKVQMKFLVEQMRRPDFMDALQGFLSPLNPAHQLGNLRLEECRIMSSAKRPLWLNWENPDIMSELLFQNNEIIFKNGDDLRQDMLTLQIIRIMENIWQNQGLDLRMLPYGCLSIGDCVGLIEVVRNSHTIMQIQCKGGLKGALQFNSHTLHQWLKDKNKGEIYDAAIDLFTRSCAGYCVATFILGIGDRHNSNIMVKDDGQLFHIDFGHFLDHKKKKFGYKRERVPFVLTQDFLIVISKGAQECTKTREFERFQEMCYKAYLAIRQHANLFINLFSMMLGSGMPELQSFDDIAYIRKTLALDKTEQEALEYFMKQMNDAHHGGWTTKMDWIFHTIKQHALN
Experiment: Inhibition of PI3Kalpha
Experimental Endpoint: log10 IC50 (log10 of the value in nM)

>>> readout_value("Cn1ncc2c(Oc3ccc(S(C)(=O)=O)cc3)nc(-c3cccc4[nH]ncc34)nc21")
0.48
>>> readout_value("COc1cccc(Nc2nc(N3CCC(O)CC3)nc3c2cnn3C)c1")
2.63
>>> readout_value("COc1cccc(Nc2nc(-c3cccc4[nH]ncc34)nc3c2cnn3C)c1")
0.15
>>> readout_value("COc1cccc(Nc2nc(N3CC(C)OC(C)C3)nc3c2cnn3C)c1 (centres undefined)")
2.57
>>> readout_value("Cn1ncc2c(-c3ccc(S(C)(=O)=O)cc3)nc(-c3cccc4[nH]ncc34)nc21")
0.69
>>> readout_value("Cn1ncc2c(NCC(C)(C)CO)nc(-c3cccc4[nH]ncc34)nc21")
0.04
>>> readout_value("COc1cccc(Nc2nc(N3CCCCC3)nc3c2cnn3C)c1")
2.56
>>> readout_value("COc1cccc(Nc2nc(-c3cccc(S(C)(=O)=O)c3)nc3c2cnn3C)c1")
1.75
>>> readout_value("CN1CCC(Nc2nc(-c3cccc4[nH]ncc34)nc3c2cnn3C)CC1")
0.92
>>> readout_value("COc1cccc(Nc2nc(-c3cccc(NC(C)=O)c3)nc3c2cnn3C)c1")
2.59
>>> readout_value("COc1cccc(Nc2nc(-c3cccc4onc(C)c34)nc3c2cnn3C)c1")
0.23
>>> readout_value("COc1cccc(Nc2nc(N3CCOCC3)nc3c2cnn3C)c1")
2.21
>>> readout_value("COc1cccc(Nc2nc(-c3cccnc3)nc3c2cnn3C)c1")
1.46
>>> readout_value("COc1cccc(Nc2nc(-c3cnc(N)nc3)nc3c2cnn3C)c1")
1.20
>>> readout_value("COc1cccc(Nc2nc(-c3cccc4[nH]nc(N)c34)nc3c2cnn3C)c1")
1.04
>>> readout_value("COc1cccc(Nc2nc(-c3cccc(C(N)=O)c3)nc3c2cnn3C)c1")
1.86
>>> readout_value("Cn1ncc2c(Nc3ccc(S(C)(=O)=O)cc3)nc(-c3cccc4[nH]ncc34)nc21")
0.15
>>> readout_value("CNC(=O)c1cccc(-c2nc(Nc3cccc(OC)c3)c3cnn(C)c3n2)c1")
3.56
>>> readout_value("COc1cccc(Nc2nc(-c3cccc(OC)c3)nc3c2cnn3C)c1")
2.13

---

Experiment: Solubility of the compound at pH 6.5
Assay type: physicochemical
Conditions: buffer
Experimental Endpoint: solubility

>>> readout_value("Cn1ncc2c(Oc3ccc(S(C)(=O)=O)cc3)cc(-c3cccc4[nH]ncc34)nc21")
"15 µg/mL"
>>> readout_value("Cn1ncc2c(-c3ccc(S(C)(=O)=O)cc3)nc(-c3cccc4[nH]ncc34)nc21")
"< 1 µg/mL"
>>> readout_value("Cn1ncc2c(Nc3ccc(S(C)(=O)=O)cc3)nc(-c3cccc4[nH]ncc34)nc21")
"7.1 µg/mL"
>>> readout_value("Cn1ncc2c(Oc3ccc(S(C)(=O)=O)cc3)nc(-c3cccc4[nH]ncc34)nc21")
"16 µg/mL"

---

Test system: MDR1
Assay: Apparent permeability of the compound from apical to basolateral direction in MDCKI cells expressing MDR1
Format: ADME, cell-based, Canis lupus familiaris
Settings: dog, MDCK-MDR1
Experimental Endpoint: Papp A→B

>>> readout_value("Cn1ncc2c(Nc3ccc(S(C)(=O)=O)cc3)nc(-c3cccc4[nH]ncc34)nc21")
"0.13 ×10⁻⁶ cm/s"
>>> readout_value("Cn1ncc2c(-c3ccc(S(C)(=O)=O)cc3)nc(-c3cccc4[nH]ncc34)nc21")
"7.6 ×10⁻⁶ cm/s"
>>> readout_value("Cn1ncc2c(Oc3ccc(S(C)(=O)=O)cc3)cc(-c3cccc4[nH]ncc34)nc21")
"1.2 ×10⁻⁶ cm/s"
>>> readout_value("Cn1ncc2c(Oc3ccc(S(C)(=O)=O)cc3)nc(-c3cccc4[nH]ncc34)nc21")
"0.8 ×10⁻⁶ cm/s"

---

Test: Plasma clearance in human PC3 cells xenografted athymic nude mouse
Format: ADME, organism-based, PC-3
Experimental Endpoint: clearance (mL/min/kg)

>>> readout_value("Cn1ncc2c(Oc3ccc(S(C)(=O)=O)cc3)cc(-c3cccc4[nH]ncc34)nc21")
12.7

---

Assay: Plasma clearance in rat
Assay type: ADME, organism-based
Measured log10 clearance by item
Experimental Endpoint: log10 clearance (log10 of the value in mL/min/kg)

>>> readout_value("Cn1ncc2c(Oc3ccc(S(C)(=O)=O)cc3)nc(-c3cccc4[nH]ncc34)nc21")
0.30
>>> readout_value("Cn1ncc2c(NCCCS(C)(=O)=O)nc(-c3cccc4n[nH]cc34)nc21")
2.14
>>> readout_value("CN1CCC(Nc2nc(-c3cccc4[nH]ncc34)nc3c2cnn3C)CC1")
2.25
>>> readout_value("Cn1ncc2c(NCC(C)(C)CO)nc(-c3cccc4[nH]ncc34)nc21")
2.01
>>> readout_value("Cn1ncc2c(Nc3ccc(S(C)(=O)=O)cc3)nc(-c3cccc4[nH]ncc34)nc21")
1.30
>>> readout_value("Cn1ncc2c(Oc3ccc(S(C)(=O)=O)cc3)cc(-c3cccc4[nH]ncc34)nc21")
0.92

---

Assay: Apparent permeability of the compound from apical to basolateral direction in MDCKI cells
Format: ADME, cell-based, Canis lupus familiaris
Details: dog, MDCK
Experimental Endpoint: Papp A→B (×10⁻⁶ cm/s)

>>> readout_value("Cn1ncc2c(Oc3ccc(S(C)(=O)=O)cc3)cc(-c3cccc4[nH]ncc34)nc21")
13.9
>>> readout_value("Cn1ncc2c(Nc3ccc(S(C)(=O)=O)cc3)nc(-c3cccc4[nH]ncc34)nc21")
0.37
>>> readout_value("Cn1ncc2c(Oc3ccc(S(C)(=O)=O)cc3)nc(-c3cccc4[nH]ncc34)nc21")
2.5
>>> readout_value("Cn1ncc2c(-c3ccc(S(C)(=O)=O)cc3)nc(-c3cccc4[nH]ncc34)nc21")
31.5
